Here, each record is paired with measured IC50 data.
Molecular target: DNA topoisomerase 4 subunit A (Staphylococcus aureus, UniProt P0C1U9)
Sequence (P0C1U9 whole entry): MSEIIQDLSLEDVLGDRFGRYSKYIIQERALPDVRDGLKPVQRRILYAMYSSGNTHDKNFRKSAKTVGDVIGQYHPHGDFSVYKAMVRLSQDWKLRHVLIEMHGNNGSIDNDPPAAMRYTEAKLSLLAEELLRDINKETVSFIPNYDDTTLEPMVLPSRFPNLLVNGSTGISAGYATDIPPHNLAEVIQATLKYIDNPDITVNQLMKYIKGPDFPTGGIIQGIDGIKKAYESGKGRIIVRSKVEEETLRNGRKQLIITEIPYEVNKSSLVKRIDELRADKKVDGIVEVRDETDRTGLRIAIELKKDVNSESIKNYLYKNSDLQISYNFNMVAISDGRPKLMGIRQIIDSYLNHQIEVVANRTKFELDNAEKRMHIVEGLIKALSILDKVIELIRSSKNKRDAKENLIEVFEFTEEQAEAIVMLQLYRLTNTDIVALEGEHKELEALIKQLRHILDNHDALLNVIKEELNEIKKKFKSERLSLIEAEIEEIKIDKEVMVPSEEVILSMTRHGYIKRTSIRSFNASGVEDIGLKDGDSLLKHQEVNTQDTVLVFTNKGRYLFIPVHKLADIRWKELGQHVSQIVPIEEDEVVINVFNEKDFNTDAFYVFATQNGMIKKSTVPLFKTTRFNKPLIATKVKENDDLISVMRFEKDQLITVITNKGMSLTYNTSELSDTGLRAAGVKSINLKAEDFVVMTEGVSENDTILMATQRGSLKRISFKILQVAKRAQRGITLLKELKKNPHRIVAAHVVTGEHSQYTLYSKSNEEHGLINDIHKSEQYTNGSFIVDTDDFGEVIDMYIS
Assay: Inhibition of Staphylococcus aureus ATCC 29213 DNA topoisomerase 4 subunit ParC assessed as reduction in decatenation of kinetoplast DNA incubated for 30 mins by ethidium bromide staining based gel electrophoresis method

Examples from the recorded data:
Compound	IC50
O=c1cc(NC2CCN(CCCc3ccccc3)CC2)c2cc(Cl)ccc2o1	100 to 200 µM
COc1ccc2cc(F)nc(N3CCN(CC(O)CNc4cc(=O)oc5ccc(F)cc45)CC3)c2c1 (racemic)	< 0.1 µM
Cc1cccc2oc(=O)cc(NCCCN3CCN(c4nccc5ccc(F)cc45)CC3)c12	> 100 µM
O=c1cc(N[C@H]2C[C@@H](N3CCN(c4nccc5ccccc45)CC3)C2)c2ccccc2o1	> 100 µM
Cc1c(NCCCN2CCN(c3nccc4ccc(F)cc34)CC2)c2ccccc2oc1=O	> 100 µM
CN(CCCN1CCN(c2nccc3ccccc23)CC1)c1cc(=O)oc2ccccc12	> 100 µM

Next, consider the following compound.
stdin: Recorded IC50 for O=c1cc(NCCN2CCN(c3nccc4ccccc34)CC2)c2ccccc2o1 , please?
stdout: > 100 µM
